human PDE 5 (Homo sapiens (Human)): recorded pIC50 for assorted compounds
One number for each entry, as −log10 of the molar value.

CCc1nc(-n2nc(Cc3ccccc3F)c3cc(F)ccc32)nc2c1C(C)(C)C(=O)N2    6.36
CC1(C)C(=O)Nc2nc(-n3nc(Cc4ccccc4F)c4cc(F)ccc43)nnc21    7.12
CC1(C)C(=O)Nc2nc(-c3nn(Cc4ncccc4F)c4cc(Cl)ccc34)nnc21    6.80
CC1(C)C(=O)Nc2nc(-n3nc(CCC(F)(F)C(F)(F)F)c4cc(F)ccc43)nnc21    6.28

Hi! Can you tell me pIC50 for each of these compounds?
1. CC1(C)C(=O)Nc2nc(-n3nc(Cc4ccccc4F)c4cc(F)ccc43)ncc21
2. Cc1ncc2c(-c3nnc4c(n3)NC(=O)C4(C)C)nn(Cc3cccc(F)c3F)c2n1
3. CCCc1nc(-n2nc(Cc3ccccc3F)c3ccccc32)nc2c1C(C)(C)C(=O)N2
4. CC1(C)C(=O)Nc2nc(-c3nn(Cc4ccccc4F)c4c3CCC4)nnc21
5. Cc1nc(-n2nc(Cc3ccccc3F)c3cc(F)ccc32)nc2c1C(C)(C)C(=O)N2

Result:
6.40
7.80
6.35
5.46
6.47

Hi! Can you tell me pIC50 for each of these compounds?
1. CC1(C)C(=O)Nc2nc(-c3nn(CCC(F)(F)C(F)(F)F)c4cc(Cl)ccc34)nnc21
2. CC1(C)C(=O)Nc2nc(-n3nc(Cc4ccccc4F)c4ccccc43)nc(I)c21

Result:
7.02
6.16
